system: LXRb homodimer (NR concentration 270 nM); assay: PBM binding z-score (relative to random genomic background probes); higher = stronger binding; sequences stand for … in GC…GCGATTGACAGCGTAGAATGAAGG
The label depends only on PBM binding z-score: Met if it is at least -0.3, Not met if it is smaller.

# sequence, assigned_class
measured = [
    ("CCTACTGGGCGATTCAGAGGTCATTGATCATATG", "Met"),
    ("CGAACTAGGTCACCAGGACAGTGAAGAGGTTGGA", "Not met"),
    ("ATATGTAGGTTAGCTGGAGTCATTCAGACTAGGC", "Met"),
    ("ATCGAAACGTCGTGAGGTGAGTATACAGAAAGGC", "Not met"),
    ("CCTGCTAGGTCAAGGGTCAGCTAAAGCAGCTCGC", "Met"),
]

Q: Decide: is the reported value of PBM binding z-score for `ATATGTAGGTTAGGGTCGTTCAGAAAGTAGGGAA` equal to or greater than -0.3?
Result: Met

Q: Tell me whether PBM binding z-score is at least -0.3 here: `CAAACTAGGTCAAAGGTCAAAGTTGAGCCAACCA`
Result: Met

Q: Record `CGAACTAGGTCACAGGACAGTGAAAGGCGACGTA` ; criterion: PBM binding z-score no lower than -0.3. Met?
Result: Not met

* * *

system: RARb:RXRa (NR concentration 270 nM, RXRa partner concentration 90 nM); experiment: PBM binding z-score (relative to random genomic background probes); higher = stronger binding; sequences stand for … in GC…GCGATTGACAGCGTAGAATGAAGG
quantity_measured: PBM binding z-score
Respond numerically, and do not add a unit to the figure.

Example entries begin here.
# sequence, reading
rows = [
    ("CAAACTAGGTCACCAGGACAGTGAAGAGGTTGGA", 4.28),
    ("CTATGTAGGTTAAGGGGGTCATTCAATTTGAAAG", 3.55),
    ("CGAACTAGGTCCAAGGACAGTGAAAGGCGACGTA", 0.398),
]

# next sequence below
Q: What value of PBM binding z-score on RARb:RXRa (NR concentration 270 nM, RXRa partner concentration 90 nM) does `CGAACTAGGTCAACAGGACAGTGAAGAGGTTGGA` have?
Result: 4.23

* * *

test system: FXR:RXRa (NR concentration 270 nM, RXRa partner concentration 90 nM); test: PBM binding z-score (relative to random genomic background probes); higher = stronger binding; sequences stand for … in GC…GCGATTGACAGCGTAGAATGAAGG
quantity_measured: PBM binding z-score

# sequence, PBM binding z-score
data = [
    ("CCTTACGGGTCAGTGACAGGTTATAGCATTTGGA", 4.29),
    ("CCGAGTAGGTTACGACGGGGCATTCAGTGCGAAT", -0.0135),
    ("CCGAGTAGGTTAGGAGGGGGCATTCAGTGCGAAT", 2.47),
    ("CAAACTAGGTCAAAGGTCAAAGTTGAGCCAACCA", 8.49),
    ("TCTCGGAGGACACGAAAAGTCAGAGCTCGACATC", 0.557),
    ("CCTTACGGGTCACTGACAGGTCATAGCATTTGGA", 5.83),
]

Proceeding to the next sequence to report its PBM binding z-score.
Q: Looking for the measured PBM binding z-score of `CCCACTGGGGCAAAGGTTACCATACTCAGTACGA` , can you help?
Result: 1.6

* * *

system: PPARg:RXRa 30nM:10nM, anti-RXR (NR concentration 30 nM, RXRa partner concentration 10 nM); test: PBM binding z-score (relative to random genomic background probes); higher = stronger binding; sequences stand for … in GC…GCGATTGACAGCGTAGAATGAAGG
List of PBM binding z-score values.
Respond numerically, and do not add a unit to the figure.

# sequence, PBM binding z-score
data = [
    ("CTATGTAGGTTAAGGGGGTCATTCCGTTTGAAAG", 5.98),
]

Could you now look at the following sequence, please?
Q: What value of PBM binding z-score on PPARg:RXRa 30nM:10nM, anti-RXR (NR concentration 30 nM, RXRa partner concentration 10 nM) does `GATACAGGGTCAGCTAGAGGTCAGAGTATGGAAA` have?
Result: 1.99

* * *

tested on: PPARg:RXRa IVT, anti-PPARg (NR concentration 270 nM, RXRa partner concentration 90 nM); test: PBM binding z-score (relative to random genomic background probes); higher = stronger binding; sequences stand for … in GC…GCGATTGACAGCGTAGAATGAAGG
true means recorded PBM binding z-score is 5 or above; false means it is below 5.

# sequence, assigned_class
records = [
    ("ATATGTAGGTTAGCTGGCGTCATTCAGACTAGGC", "true"),
    ("TTACCAAGGTTAAAGGTCGTTGATGCACGCCTTG", "false"),
    ("TTACCAAGGTGAAAGGTCGTTGAGGCACGCCTTG", "true"),
    ("ATGGAAAGGTCGTGAGGTGAGTATACAGAAAGGC", "false"),
    ("CCTTACGGGTCAGGAGGTTATAGCACGACGAGCG", "false"),
]

Please find the next sequence below.
Q: Decide: is the reported value of PBM binding z-score for `CCTACTGGGCCAAAGGTCATTGACTCCAATGCTC` equal to or greater than 5?
Result: true

* * *

tested on: PPARg:RXRa 270nM:90nM, anti-RXR (NR concentration 270 nM, RXRa partner concentration 90 nM); assay: PBM binding z-score (relative to random genomic background probes); higher = stronger binding; sequences stand for … in GC…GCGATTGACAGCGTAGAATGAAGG
quantity_measured: PBM binding z-score
Number, no unit, nothing else.

Solved cases (6 shown):
# sequence, PBM binding z-score
data = [
    ("CAAACTAGGTCACAGAGGTCAAACTCCGTGCGTA", 8.44),
    ("CCGAGTAGGTTACGAGGGGGCGTTCAGTGCGAAT", 3.17),
    ("CGTCCAAGGTCAAAGGTCAGGGAAGAGATGACGG", 9.03),
    ("TCTCGGAGGACACGAAGGTCAAAGCTTTCCAGAG", 2.53),
    ("CAAACTAGGTCAAAGGTCAGAGTCGAGCCAACCA", 11.1),
    ("CCGACTGGGGCAAAGGTTACCATGCTCAGTACGA", 9.85),
]

Q: Consider the sequence `CGAACTAGGACACCAGGACAGTGAAGAGGTTGGA` and give its measured PBM binding z-score.
Result: 1.33

* * *

system: LXRb homodimer (NR concentration 270 nM); test: PBM binding z-score (relative to random genomic background probes); higher = stronger binding; sequences stand for … in GC…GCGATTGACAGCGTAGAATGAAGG
quantity_measured: PBM binding z-score

Here are 8 sequences together with their reported answers.
# sequence, PBM binding z-score
rows = [
    ("CGAACTAGGTAAAAGGACAGTGAAAGGCGACGTA", -0.583),
    ("TCTAGTTGGTCAAAGGCCACACACTCGAAATGCG", -0.181),
    ("ATATGTAGGTTAGGGTCATCCAGAAAGTAGGGAA", 1.44),
    ("ATACGTAGGTTAGGGTCATTCAGAAAGTAGGGAA", 1.26),
    ("ATATGTAGGTTAGGGTCATTCAGAAAGTAGGGAA", 1.62),
    ("CCTGCTAGGTCTATGGTCAGCTAAAGCAGCTCGC", -0.41),
    ("ATATGTAGGTTAGGGTCATTTAGAAAGTAGGGAA", 1.67),
    ("TCTCGGAGGACACGAAAGGTCAGAACTCGACATC", 0.189),
]

Q: Returns the measured PBM binding z-score for the input sequence. Input: `CGAACTGGGTCACCAGGACAGTGAAGAGGTTGGA`
Result: -0.906

Q: Can you share its PBM binding z-score? I mean this sequence: `CCTTACGGGTCACTCCAGGTTCTAGCATCGGAGT`
Result: -0.137

Q: Would you kindly share the measured PBM binding z-score for `CATAGTTGGTCAAGGTCACACACGCTATAGGTAC` ?
Result: 1.1

Q: Recorded PBM binding z-score for `TCATATAGGTCAAAGGTGAAAGTCGGTGTGGTAA` , please?
Result: 1.91

* * *

tested on: PXR homodimer (NR concentration 270 nM); assay: PBM binding z-score (relative to random genomic background probes); higher = stronger binding; sequences stand for … in GC…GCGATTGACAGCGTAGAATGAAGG
quantity_measured: PBM binding z-score
Respond numerically, and do not add a unit to the figure.

# sequence, PBM binding z-score
records = [
    ("TCATATAGGTTAAGGTGAAAGTCGAACGATATGA", -0.203),
]

Q: Return reported PBM binding z-score; argument: `CCTACTGGGCCAAAGGTCATAGATTCCAATGCTC`
Result: 1.46

Q: Which PBM binding z-score reading was recorded for the sequence `CTATGTAGGTTAAGGGGGTCATTAAGTTTGAAAG` ?
Result: 12.5

Q: Would you mind telling me what PBM binding z-score value was observed for `CGAACTAAGTCACCAGGACAGTGAAGAGGTTGGA` ?
Result: 0.203

Q: Given `AATACAGGGACATCGTAGGCCAGAGTACGCACAG` , state its recorded PBM binding z-score.
Result: 0.0295
